Study system: receptor binding domain (RBD) of the S1-subunit of SARS-CoV-2 glycoprotein S (SARS-CoV-2, UniProt P0DTC2 319-541)
Experiment: RBD-binding quality as compared to STE90-C11, wt
Outcome measure: binding result

# count of solved cases: 5
| Binder | Value observed |
| --- | --- |
| hybrid antibody: VL STE90-C11 (SEQ ID No. 1309) with VH YU536-D04 (SEQ ID No. 364) (antibody, V domains shown) VH: QVQLVQSGGGLVQPGGSLRLSCAASGLTVSSNYMSWVRQAPGKGLEWVSVIYSGGSTYYADSVKGRFIISRDNSKNTLYLQMNSLRAEDTAVYYCARDLVVMGLDVWGKGTLVTVSS VL: DIVMTQSPSFLSASVGDRVTITCRASQGISSYLAWYQQKPGKAPKLLIYAASTLQSGVPSRFSGSGSGTEFTLTISSLQPEDFATYYCQQLNSYPPFTFGPGTKVDIK | binds |
| hybrid antibody: VL STE90-C11 (SEQ ID No. 1309) with VH YU537-H11 (SEQ ID No. 404) (antibody, V domains shown) VH: EVQLLESGGGLIQPGGSLRLSCAASGLTVSSNYMSWVRQAPGKGLEWVSVIYSGGSTYYADSVKGRFTISRDNSKNALYLQMNSLRAEDTAVYYCARGESGSPYGMDVWGQGTLVTVSS VL: DIVMTQSPSFLSASVGDRVTITCRASQGISSYLAWYQQKPGKAPKLLIYAASTLQSGVPSRFSGSGSGTEFTLTISSLQPEDFATYYCQQLNSYPPFTFGPGTKVDIK | binds |
| hybrid antibody: VL YU536-D04 (SEQ ID No. 362) with VH STE90-C11 (SEQ ID No. 1305) (antibody, V domains shown) VH: QVQLVESGGGLVQPGGSLRLSCAASGLTVSSNYMSWVRQAPGKGLEWVSVIYSGGSTYYADSVKGRFTISRDDSKNTLYLQMNSLRAEDTAVYYCARDVADAFDIWGQGTMVTVSS VL: DIQLTQSPSSLSASVGDRVTITCRASQGISSYLAWYQQKPGKAPKLLIYAASTLQSGVPSRFSGSGSGTDFTLTISSLQPEDFATYYCQQLNSYPITFGQGTKLEIK | binds |
| hybrid antibody: VL YU537-H11 (SEQ ID No. 402) with VH YU536-D04 (SEQ ID No. 364) (antibody, V domains shown) VH: QVQLVQSGGGLVQPGGSLRLSCAASGLTVSSNYMSWVRQAPGKGLEWVSVIYSGGSTYYADSVKGRFIISRDNSKNTLYLQMNSLRAEDTAVYYCARDLVVMGLDVWGKGTLVTVSS VL: QSVLTQPPSVSAAPGQKVTISCSGSSSNIGNNYVSWYQQLPGTAPKLLIYDTNKRPSGIPDRFSGSKSGTSATLGITGLQTGDEADYYCATWDSSLSVGVFGGGTKLTVL | binds |
| hybrid antibody: VL YU537-H11 (SEQ ID No. 402) with VH STE90-C11 (SEQ ID No. 1305) (antibody, V domains shown) VH: QVQLVESGGGLVQPGGSLRLSCAASGLTVSSNYMSWVRQAPGKGLEWVSVIYSGGSTYYADSVKGRFTISRDDSKNTLYLQMNSLRAEDTAVYYCARDVADAFDIWGQGTMVTVSS VL: QSVLTQPPSVSAAPGQKVTISCSGSSSNIGNNYVSWYQQLPGTAPKLLIYDTNKRPSGIPDRFSGSKSGTSATLGITGLQTGDEADYYCATWDSSLSVGVFGGGTKLTVL | binds |

Continue with the next binder.
Quick check: binding result of hybrid antibody: VL YU536-D04 (SEQ ID No. 362) with VH YU537-H11 (SEQ ID No. 404) (antibody, V domains shown) VH: EVQLLESGGGLIQPGGSLRLSCAASGLTVSSNYMSWVRQAPGKGLEWVSVIYSGGSTYYADSVKGRFTISRDNSKNALYLQMNSLRAEDTAVYYCARGESGSPYGMDVWGQGTLVTVSS VL: DIQLTQSPSSLSASVGDRVTITCRASQGISSYLAWYQQKPGKAPKLLIYAASTLQSGVPSRFSGSGSGTDFTLTISSLQPEDFATYYCQQLNSYPITFGQGTKLEIK ?
binds
